The reported measurements were obtained from patent US20210070730A1.

- ASSAY_SYSTEM: NMDAR
- TEST_NAME: Displacement of specific [3H]MK-801 binding in rat cortex membranes
- REPORTED_CONDITIONS: absence of cysteine; 3 nM [3H]MK-801, rat cortex membranes; read-out: Ki, nM (−Cys)
OUTCOME_MEASURE: Ki (nM)
Numbers only, in nM.

Exercise: Please list Ki recorded for the compound CC12CC3CC(C)(C1)CC(N)(C3)C2 [Memantine, reference compound]
Solution: 955

###

- ASSAY_SYSTEM: NMDAR
- TEST_NAME: Displacement of specific [3H]MK-801 binding in rat cortex membranes
- REPORTED_CONDITIONS: presence of 4 mM cysteine, 30 min preincubation; read-out: Ki, nM (+Cys 4 mM, 30 min)
Assign Ki to each entry below.
Answers are plain numbers, in nM.

COMPOUND: CC12CC3CC(C)(C1)CC(N=C=S)(C3)C2
OUTCOME_MEASURE: Ki
MEAS_VALUE: 458

In the following, a different compound is considered.
Exercise: Please list Ki recorded for the compound CC12CC3CC(C)(C1)CC(N)(C3)C2 [Memantine, reference compound]
Solution: 329
